Biological target: human recombinant Yes [a.a. 2–543 (end)] (Homo sapiens, UniProt P07947)
Construct: human recombinant Yes [a.a; 2–543 (end)]; purchased BPS Bioscience 40488
Sequence (P07947 2-543): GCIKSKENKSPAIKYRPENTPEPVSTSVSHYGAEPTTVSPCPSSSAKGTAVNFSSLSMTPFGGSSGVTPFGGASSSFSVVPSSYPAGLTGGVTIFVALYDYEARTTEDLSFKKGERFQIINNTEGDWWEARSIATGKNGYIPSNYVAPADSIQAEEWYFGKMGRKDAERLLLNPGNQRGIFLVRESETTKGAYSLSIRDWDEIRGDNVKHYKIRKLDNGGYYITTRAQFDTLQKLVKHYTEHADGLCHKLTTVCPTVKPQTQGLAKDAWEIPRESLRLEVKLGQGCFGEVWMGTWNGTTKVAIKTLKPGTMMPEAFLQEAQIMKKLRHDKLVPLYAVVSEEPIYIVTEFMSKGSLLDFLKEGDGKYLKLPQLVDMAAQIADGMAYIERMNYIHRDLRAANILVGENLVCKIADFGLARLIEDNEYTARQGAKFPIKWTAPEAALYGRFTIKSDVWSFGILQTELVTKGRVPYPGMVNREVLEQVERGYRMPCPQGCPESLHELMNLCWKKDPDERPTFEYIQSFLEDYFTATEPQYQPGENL
Assay: ADP-Glo kinase assay, inhibition rates of Yes phosphorylation activity (first and second screening)
Assay type: biochemical
Conditions: second screening, dissolved from fresh powder; n = 4; 10 μmol L−1 compound
Reported Second screening IR (inhibition rate) values for the following compounds.
Respond numerically; units are % and should not be typed.

COMPOUND	SYSTEM_NAME	OBS_VALUE
Cl.Clc1ccc(-c2cc(-c3ccccc3)c3cc(Cl)ccc3n2)cc1 [Compound Z48950819]	human recombinant Yes [a.a. 2–543 (end)] (Homo sapiens, UniProt P07947)	-13
Cc1nccn1-c1cncc(N2CCC3(CCCC3)CC2)n1 [Compound Z1578863056]	human recombinant Yes [a.a. 2–543 (end)] (Homo sapiens, UniProt P07947)	0
CCc1ccc(-n2c(-c3ccccc3)cn3c4c(=O)n(CCN5CCOCC5)c(=O)n(C)c4nc23)cc1 [Compound Z237376112]	human recombinant Yes [a.a. 2–543 (end)] (Homo sapiens, UniProt P07947)	20
Cc1c(-c2ccc(O)cc2)nc2ccc(Cl)cc2c1-c1ccccc1.Cl [Compound Z48950829]	human recombinant Yes [a.a. 2–543 (end)] (Homo sapiens, UniProt P07947)	14
Cc1nn(C)c2nc(-c3ccccc3)cc(C(=O)Nc3ccc4nc(CN5CCOCC5)[nH]c4c3)c12 [Compound Z826860216]	human recombinant Yes [a.a. 2–543 (end)] (Homo sapiens, UniProt P07947)	-11

Exercise: Please give the documented Second screening IR (inhibition rate) of CCOc1ccc(-c2nc3ccccc3c(-c3ccccc3)c2Cl)cc1.Cl [Compound Z57038735]
Solution: 2

Exercise: Kindly indicate its recorded Second screening IR (inhibition rate). Item: COc1ccc(CCn2c(N)c(C(=O)NCc3ccc4c(c3)OCO4)c3nc4ccccc4nc32)cc1OC [Compound Z56872869]
Solution: -24

Exercise: Give Second screening IR (inhibition rate) for the following compound: COc1ccc(Br)cc1/C=N/Nc1ncnc2nc[nH]c12 [Compound Z57745307]
Solution: 61

Just for reference, paper PMC5607274 is where these values come from.
